Parameter pIC50, tested on EP2 (Homo sapiens), listed per item.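 Note: functional calcium flux assay in stably transfected HEK293 cells expressing EP2 coupled via a promiscuous G protein, clytin luminescence read as area under the curve, 30 min compound preincubation.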
Sequence (P43116 whole entry): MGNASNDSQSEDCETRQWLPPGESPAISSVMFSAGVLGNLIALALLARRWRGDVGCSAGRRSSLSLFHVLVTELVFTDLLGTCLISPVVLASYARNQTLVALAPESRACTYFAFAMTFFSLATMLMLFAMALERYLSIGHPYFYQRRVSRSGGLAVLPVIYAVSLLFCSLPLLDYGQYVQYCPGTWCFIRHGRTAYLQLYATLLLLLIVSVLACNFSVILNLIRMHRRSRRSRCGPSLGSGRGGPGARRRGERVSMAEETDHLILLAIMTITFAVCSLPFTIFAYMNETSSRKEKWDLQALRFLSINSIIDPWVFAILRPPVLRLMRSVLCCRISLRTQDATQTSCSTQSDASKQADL
pIC50: −log10 of the molar value.

Query: Any idea what pIC50 was measured for COc1cccc(-c2ccc(C(C)n3ncc4cccc(C(=O)NC5CC6(C5)CC(C(=O)O)C6)c43)cc2)c1 (racemic) ?
Result: > 7.60

Query: Entry to check: CC(c1ccc(-c2ccccc2)cc1)n1ncc2cc(Cl)cc(C(=O)NC3CC4(C3)CC(C(=O)O)C4)c21 (racemic) [Example 173]
Result: > 7.60

Query: Entry to check: COc1cc(C#N)cc(-c2ccc(C(C)n3ncc4cccc(C(=O)NC5CC6(C5)CC(C(=O)O)C6)c43)cc2)c1 (single isomer, unassigned) [Example 126]
Result: > 7.60
